Test system: 786-0 renal
Experiment: NCI-60 one-dose screen, 48 h (100 = growth as untreated, 0 = no growth, -100 = all killed)
Conditions: 10 µM unless noted
Compounds without any hit were thinned out: in the full panel of roughly 83,000, 20% have a hit.

>  <COMPOUND_STRUCTURE>
CCOc1ccc(Nc2nc(-c3ccc4c(c3)NC(=O)CO4)cs2)cc1

>  <growth, %>
71.1

$$$$
>  <COMPOUND_STRUCTURE>
CNC(=O)c1cccc(Cn2nc(C)c(NC(=O)c3ccc(COc4ccc(C(F)(F)F)cc4C)cc3)c2C)c1

>  <growth, %>
54.8

$$$$
>  <COMPOUND_STRUCTURE>
C=C1C(=O)O[C@H]2[C@H]1CC/C(COC(=O)NCc1c[nH]c3ccc(Br)cc13)=C\CC[C@@]1(C)O[C@@H]21

>  <growth, %>
-47.7

$$$$
>  <COMPOUND_STRUCTURE>
N/C(=N\C(N)=N\c1nc2ccccc2s1)c1cccc(Cl)c1

>  <growth, %>
94.4

$$$$
>  <COMPOUND_STRUCTURE>
c1ccc2c(-c3c[nH]c4ccccc34)c3c(cc2c1)[nH]c1ccccc13

>  <growth, %>
51.9

$$$$

* * *

System: SF-539 CNS
Assay: NCI-60 one-dose screen, 48 h
Details: 10 µM unless noted
Compounds without any hit were thinned out: in the full panel of roughly 83,000, 20% have a hit. Activity calls are given as the source filed them. The calls were made as follows: active = growth percent below 10; inactive = the rest.
Outcomes: true for active, false for inactive

>  <COMPOUND>
Nc1n[nH]c2cccc(C#Cc3cccc(C(=O)Nc4cc(CN5CCOCC5)cc(C(F)(F)F)c4)c3)c12

>  <ASSIGNED_CATEGORY>
true

$$$$
>  <COMPOUND>
Cc1nc2sccn2c1-c1cn2ccsc2n1

>  <ASSIGNED_CATEGORY>
false

$$$$
>  <COMPOUND>
O=C1OC(Cc2ccccc2)C1c1ccccc1 (configuration not stated)

>  <ASSIGNED_CATEGORY>
false

$$$$
>  <COMPOUND>
N#C/C(=C\c1ccc([N+](=O)[O-])s1)c1nc2cc(Br)ccc2s1

>  <ASSIGNED_CATEGORY>
true

$$$$
>  <COMPOUND>
COc1cc2cc(CN3CCN(c4nccc(-c5ccc6ccccc6c5)n4)CC3)c(=O)[nH]c2cc1OC

>  <ASSIGNED_CATEGORY>
false

$$$$
>  <COMPOUND>
O=C(CCN1CCCC1)Nc1ccc2c(Nc3ccc(F)cc3)c3ccccc3nc2c1

>  <ASSIGNED_CATEGORY>
true

$$$$
>  <COMPOUND>
Cc1ccc(NC(=O)Cc2ccc(/C=C/C(=O)c3ncc[nH]3)cc2)cc1

>  <ASSIGNED_CATEGORY>
true

$$$$
>  <COMPOUND>
CNC(=O)c1cccc(Cn2nc(C)c(NC(=O)c3ccc(COc4ccc(C(F)(F)F)cc4C)cc3)c2C)n1

>  <ASSIGNED_CATEGORY>
false

$$$$
>  <COMPOUND>
CC(=O)[C@H]1CCC/C=C/[C@@H]2C[C@H](O)C[C@H]2[C@H](O)/C=C/C(=O)O1

>  <ASSIGNED_CATEGORY>
false

$$$$
>  <COMPOUND>
O=C(/C=C/c1ccc(F)cc1)c1ccc(NC(=O)N2CCN(c3cc4c(cc3F)c(=O)c(C(=O)O)cn4C3CC3)CC2)cc1

>  <ASSIGNED_CATEGORY>
false

$$$$
>  <COMPOUND>
Cc1cccc(-c2cn3ccnc3c(-c3ccc4ncn(Cc5ccccc5)c4c3)n2)c1

>  <ASSIGNED_CATEGORY>
false

$$$$
>  <COMPOUND>
COc1ccc(/C=C(\C#N)n2nc3cccc(F)c3n2)cc1

>  <ASSIGNED_CATEGORY>
false

$$$$
>  <COMPOUND>
CC(=O)c1ccc(NS(=O)(=O)c2cccc(C(=O)Nc3ccc(Br)cc3)c2)cc1

>  <ASSIGNED_CATEGORY>
false

$$$$
>  <COMPOUND>
CC(=O)OC[C@]12CC[C@@H](C(=O)CBr)[C@@H]1[C@H]1CC[C@@H]3[C@@]4(C)CC[C@H](OC(C)=O)C(C)(C)[C@@H]4CC[C@@]3(C)[C@]1(C)CC2

>  <ASSIGNED_CATEGORY>
false

$$$$
>  <COMPOUND>
CCCCCCCC(=O)OCC/C=C/C1OC1C1OC(=O)/C=C\C=C\C(=O)N(C(C)=O)C(=O)/C=C(/C)CCC2OC2C1OC(=O)NC(C)=O (configuration not stated)

>  <ASSIGNED_CATEGORY>
false

$$$$
>  <COMPOUND>
NC(=NCc1ccccc1)C(N=Nc1ccccc1)C(=O)NCc1ccccc1 (configuration not stated)

>  <ASSIGNED_CATEGORY>
false

$$$$
>  <COMPOUND>
COc1cc(/C=C\c2cc(OC)c(OC)c(OC)c2)cc(N)c1OC

>  <ASSIGNED_CATEGORY>
false

$$$$
>  <COMPOUND>
O=C(Nc1ccccc1C(=O)N/N=C(\c1ccccc1)c1ccccn1)c1ccc(F)cc1

>  <ASSIGNED_CATEGORY>
true

$$$$
>  <COMPOUND>
CCOC(=O)CCN(CC(C)C)C(=S)Nc1ccccc1

>  <ASSIGNED_CATEGORY>
false

$$$$
>  <COMPOUND>
COc1ccc(-c2nc([C@@H](C)Sc3nc(N)cc(N)n3)c(C)s2)cc1OCCN1CCOCC1

>  <ASSIGNED_CATEGORY>
false

$$$$
>  <COMPOUND>
COc1cc2oc(-c3cccc(C(=O)Nc4ccccc4)c3)cc(=O)c2c(O)c1OC

>  <ASSIGNED_CATEGORY>
false

$$$$
>  <COMPOUND>
CC(=O)Nc1ccc(-c2ccc3c(c2)NC(=O)/C3=C\c2ccc[nH]2)cc1

>  <ASSIGNED_CATEGORY>
false

$$$$
>  <COMPOUND>
O=C(c1nnc(Nc2ccccc2Br)o1)c1c[nH]c2ccccc12

>  <ASSIGNED_CATEGORY>
false

$$$$
>  <COMPOUND>
C=C1C(=O)O[C@H]2[C@H]1CC/C(CNC(=O)CCc1ccc(OC)cc1)=C\CC[C@@]1(C)O[C@@H]21

>  <ASSIGNED_CATEGORY>
false

$$$$
>  <COMPOUND>
CN(C)CC(O)c1ccc(/C=C/c2ccc(Cl)cc2)cc1 (configuration not stated)

>  <ASSIGNED_CATEGORY>
true

$$$$
>  <COMPOUND>
N#C/C(=C\c1ccc(Cl)cc1)n1nnc2cc(F)c(F)cc21

>  <ASSIGNED_CATEGORY>
true

$$$$
>  <COMPOUND>
COc1cc(/C=N/NC(=O)c2cnn3c2NC(c2ccccc2)C3)ccc1OCc1ccccc1 (configuration not stated)

>  <ASSIGNED_CATEGORY>
true

$$$$
>  <COMPOUND>
CCOC(=O)Oc1c(OC)cc(C(=O)c2ccc(OC)c(O)c2OC)cc1OC

>  <ASSIGNED_CATEGORY>
true

$$$$
>  <COMPOUND>
COc1ccc2c(c1)oc1c(C)c3c(c(C)c12)C(=O)N(N)C3=O

>  <ASSIGNED_CATEGORY>
true

$$$$
>  <COMPOUND>
COc1ccc(/C=C/c2nc(Nc3ccc(S(=O)(=O)Nc4nc(C)cc(C)n4)cc3)c3ccccc3n2)cc1

>  <ASSIGNED_CATEGORY>
false

$$$$
>  <COMPOUND>
CSc1nc2sc3cccc(Cl)c3n2c(=N)c1C#N

>  <ASSIGNED_CATEGORY>
false

$$$$
>  <COMPOUND>
Nc1n[nH]c2cccc(C#Cc3cccc(C(=O)Nc4cccc(C(F)(F)F)c4)c3)c12

>  <ASSIGNED_CATEGORY>
false

$$$$
>  <COMPOUND>
Cc1ccc(C(=O)/C(=C\c2ccc([N+](=O)[O-])cc2)S(=O)Cc2ccc(Cl)cc2)cc1 (configuration not stated)

>  <ASSIGNED_CATEGORY>
false

$$$$
>  <COMPOUND>
COc1ccc(/C=C/c2nc(Nc3ccc(S(=O)(=O)Nc4cc(C)on4)cc3)c3ccccc3n2)cc1

>  <ASSIGNED_CATEGORY>
false

$$$$
>  <COMPOUND>
C=C(CBr)[C@@H]1CC[C@]2(COC(C)=O)CC[C@]3(C)[C@H](CC[C@@H]4[C@@]5(C)CCCNC(C)(C)[C@@H]5CC[C@]43C)[C@@H]12

>  <ASSIGNED_CATEGORY>
false

$$$$
>  <COMPOUND>
O=C(CNCCN1CCOCC1)N1c2cccc3cccc(c23)N(C(=O)CNCCN2CCOCC2)C1c1cn(-c2ccccc2)nc1-c1cccc([N+](=O)[O-])c1

>  <ASSIGNED_CATEGORY>
false

$$$$
>  <COMPOUND>
NCCCCCCNc1cc(-c2cccc(OC(F)(F)F)c2)nc2ccc(N3CCCC3)cc12

>  <ASSIGNED_CATEGORY>
true

$$$$

# credit: PubChem BioAssay (NCI)
